# Tested on: CAMK2A
# experimental_parameters: concentration: 1 μM, replicates: in singlicate; n = 1;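 also: KINOMEscan kinase panel screen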
Cut-off 5% on %Inh: below means label 1, at or above means label 0.

Past entries and their recorded results:
compound=COc1ccc(Nc2nccc(NCCNC(=O)c3cc4ccccc4s3)n2)cc1 subject_of_test=CAMK2A label="label 1"
compound=CCn1c(-c2nonc2N)nc2c(C#CC(C)(C)O)ncc(OCCCCN)c21.O=C(O)C(F)(F)F.O=C(O)C(F)(F)F subject_of_test=CAMK2A label="label 1"
compound=O=C(O)C(F)(F)F.O=C(O)C(F)(F)F.O=c1[nH]ccc2nc(N[C@@H]3CCCNC3)nc(Nc3ccc(S(=O)(=O)N4CCOCC4)cc3)c12 subject_of_test=CAMK2A label="label 0"

Does the reported %Inh of the following compound sit strictly below 5%? Cl.Cl.NCC(C(=O)Nc1cc(Br)c(-c2ccnc3[nH]ccc23)s1)c1ccccc1 (stereo not shown) label 0

Next record, please: Cn1cc(-c2ccc3c(c2)CCN3C(=O)Cc2cccc(F)c2)c2c(N)ncnc21 label 1

Next record, please: Cc1occc1-c1ncc(OC[C@@H](N)Cc2c[nH]c3ccccc23)cc1-c1ccc2[nH]nc(C)c2c1.O=C(O)C(F)(F)F label 0

Next record, please: CCn1c(-c2nonc2N)nc2c(C#CC(C)(C)O)nc(OC[C@H](N)c3ccccc3)cc21 label 1

Next record, please: CC(=O)N1CCN(c2ccc(Nc3nccc(-c4sc(C(C)C)nc4-c4cccc(NS(=O)(=O)c5cccc(Cl)c5)c4)n3)cn2)CC1 label 1

---

Measured %Inh accompanies every entry in the list below.
# System: CSNK2A2
# experimental_parameters: concentration: 1 μM, replicates: in singlicate; n = 1
Numbers only; they are read as %.

Examples with answers:
molecule="CN(C)S(=O)(=O)c1cc(-c2ccc3nccc(-c4cccc(S(N)(=O)=O)c4)c3c2)cnc1N [GSK1669921]" property_name=%Inh recorded_number=4
molecule="CN(C)Cc1ccc(-c2ccc3c(Nc4ccc(Oc5ccccn5)cc4)ccnc3c2)o1 [GW567148]" property_name=%Inh recorded_number=0

Find the measured %Inh: item Cl.NC(=O)c1cccc(Nc2nccc(Nc3ccc(Oc4c(Cl)cccc4Cl)c(Cl)c3)n2)c1 [GW659009] , target or system CSNK2A2. 45

---

# Test system: ACVR2B
# experimental_parameters: concentration: 1 μM, replicates: in singlicate; n = 1
property_name: %Inh (%)
Numbers only; they are read as %.

Examples with answers:
molecule=O=C(Nc1ccccc1F)NC1CCN(c2ccnc(Nc3ccc(F)cc3)n2)CC1 property_name=%Inh recorded_number=0
molecule=Cc1cccc(NC(=O)Nc2ccc(Oc3ncnc4ccn(C)c34)cc2)c1 property_name=%Inh recorded_number=0
molecule=Nc1ncc(-c2cccnc2)c2scc(-c3ccc4c(c3)CCN4C(=O)Cc3ccccc3)c12 property_name=%Inh recorded_number=0
molecule="NCCCC(NC(=O)c1cc(Br)c(-c2ccnc3[nH]ccc23)s1)c1ccccc1.O=C(O)C(F)(F)F.O=C(O)C(F)(F)F (stereo not shown)" property_name=%Inh recorded_number=0
molecule="Cl.Cl.NCC(C(=O)Nc1cc(Br)c(-c2ccnc3[nH]ccc23)s1)c1ccccc1 (stereo not shown)" property_name=%Inh recorded_number=5
molecule=O=c1[nH]cc(-c2ccc(N3CCOCC3)cc2)c2sc(-c3cn[nH]c3)cc12 property_name=%Inh recorded_number=0

Entry under review: Cc1ccc(C(=O)Nc2ccc(Nc3ccnc4cc(-c5nccs5)ccc34)cc2O)cc1.Cl . Reported %Inh? 19
